- Test system: OVCAR-8 ovarian
- METHOD DESCRIPTION: NCI tumour cell line growth inhibition, 48 h
For each record, write down the corresponding TGI.

Please give the measured TGI for this compound: `N#C/C(=C\n1ccc(=O)[nH]c1=S)C(N)=O`
> 100 µM

Please give the measured TGI for this compound: `Cc1ccc2c(=O)cc(-c3cccs3)[nH]c2n1`
> 100 µM

Please give the measured TGI for this compound: `O=C(Nc1ccc(Br)cc1)c1ccc(Cl)c(Cl)c1`
> 100 µM

Please give the measured TGI for this compound: C/C=C/C(O)P1(=O)N(Cc2ccccc2)[C@@H]2CCCC[C@H]2N1Cc1ccccc1 (some centres not stated)
> 25 µM

Please give the measured TGI for this compound: `COc1cc2c3c(n(CCCN(C)C)c(=O)c2cc1OC)-c1ccccc1C3=O`
> 100 µM

Please give the measured TGI for this compound: `COc1ccc(OC)c2c(/C=C/c3ccc(N(C)C)cc3)ccnc12`
> 10 µM

Please give the measured TGI for this compound: `NC(=O)NNC(=O)c1nc[nH]c1[N+](=O)[O-]`
> 100 µM

Please give the measured TGI for this compound: `CC1=NN2C(=N)/C(=C/c3ccco3)C(=O)N=C2S1`
> 100 µM

Please give the measured TGI for this compound: `CCCSc1ccc2[nH]c(/N=C/c3ccco3)cc2c1`
> 100 µM

Please give the measured TGI for this compound: COC(=O)[C@H](Cc1ccccc1)NC(=O)[C@H](Cc1ccccc1)NC(=O)[C@@H]1CCCN1C(=O)N[C@H]1C2C=CC(C2)C1C(=O)N1CCC[C@H]1C(=O)N[C@@H](C)C(=O)N[C@H](C(=O)OC)C(C)C (some centres not stated)
> 100 µM

Please give the measured TGI for this compound: `CCn1c(CO)nn(-c2cc(O[C@@H](C)C(F)(F)F)c(C(=O)Nc3c(F)cccc3Cl)cc2F)c1=O`
> 100 µM

Please give the measured TGI for this compound: Cc1ccc2c(c1)[nH]c1cc(C(F)(F)F)ccc1[p+]2=O (configuration not stated)
> 100 µM

---

- System: HOP-62 NSCLC
- METHOD DESCRIPTION: NCI tumour cell line growth inhibition, 48 h; in the data active = GI50 below about 0.43 µM; inactive = the rest
Result category, one only: yes (1) for active, no (0) for inactive

Query: recorded result category for `O=C(/C=C/c1cc(CN2CCOCC2)c(O)c2ncccc12)c1cc(CN2CCOCC2)c(O)c2ncccc12` in this test
yes (1)

Query: recorded result category for `COc1cc(C2=C(c3cn(C)c4ccccc34)COC2=O)cc(OC)c1OC` in this test
yes (1)

Query: recorded result category for `Cn1cc(C2=C(c3cn(CCCCCN)c4ccccc34)C(=O)NC2=O)c2ccccc21` in this test
no (0)

Query: recorded result category for `NC(N)=NCCCCCNc1noc(Cc2c[nH]c3cc(Br)ccc23)n1` in this test
no (0)

Query: recorded result category for `Cc1cc2c(cc1Cl)SC(=Nc1ccc(Cl)cc1)N(S(=O)(=O)c1ccccc1)S2(=O)=O` in this test
no (0)

---

- System: UACC-257 melanoma
- METHOD DESCRIPTION: NCI tumour cell line growth inhibition, 48 h
MEASURED METRIC: TGI

Please give the measured TGI for this compound: `CCOC(=O)c1ccc(N2C(=S)N(C(=O)c3ccccc3)C(=Nc3ccccc3)C2=Nc2ccccc2)cc1`
> 100 µM

Please give the measured TGI for this compound: `O=C(O)c1ccc(S(=O)(=O)c2ccccc2[N+](=O)[O-])cc1`
> 10 µM

Please give the measured TGI for this compound: `CCOC(=O)/C1=C(\C)N(c2ccc(C)cc2)C(=O)c2ccccc2C(=O)c2c(OC(C)=O)ccc(OC(C)=O)c21`
80.7 µM

Please give the measured TGI for this compound: `CCOC(=O)/C=C(/C(=O)OCC)n1ccc(N)nc1=O`
> 100 µM

Please give the measured TGI for this compound: `Cc1cc(S(=O)(=O)N/N=C(\Sc2cc(Cl)c(C)cc2S(N)(=O)=O)c2ccc(Cl)cc2)c(Cl)cc1Cl`
> 100 µM

Please give the measured TGI for this compound: O=C1CC2C(=O)N(Cc3ccccc3)C1C=C2S(=O)(=O)c1ccccc1 (centres undefined)
> 100 µM

Please give the measured TGI for this compound: C=CCNC(=O)N(CCC)CCCCC(NC(C)=O)C(=O)NCc1ccccc1 (centres undefined)
> 100 µM

Please give the measured TGI for this compound: O=C1[C@H]2ON(c3ccccc3)C(c3ccc(Cl)cc3)[C@H]2C(=O)N1c1ccc(Cc2ccc(N3C(=O)[C@@H]4ON(c5ccccc5)C(c5ccc(Cl)cc5)[C@@H]4C3=O)cc2)cc1 (some centres undefined)
> 100 µM

Please give the measured TGI for this compound: `CC(C)OC(=O)NNc1cc(Cl)ccc1Cl`
> 100 µM

Please give the measured TGI for this compound: `Nc1nc(SN=Nc2ccc(S(N)(=O)=O)cc2)c2[nH]cnc2n1`
> 100 µM

Please give the measured TGI for this compound: `CC(C)CNC(=O)O`
> 100 µM

Please give the measured TGI for this compound: `NCCSc1nc2ccccc2c(=O)n1-c1ccccc1`
> 100 µM

Please give the measured TGI for this compound: `CN(CCCNC(=O)Cc1ccc2ccc3cccc4ccc1c2c34)CCCNc1cc(-c2ccc3ccccc3c2)nc2ccccc12`
3.56 µM

Please give the measured TGI for this compound: `O=C(Nc1ccc(-n2cc(-c3ccncc3)c(-c3ccc(Cl)c(O)c3)n2)cc1)Nc1ccc(Cl)c(C(F)(F)F)c1`
3.4 µM

Please give the measured TGI for this compound: `COc1ccc(-c2oc3cc(O)c(OC)c(O)c3c(=O)c2OC)cc1O`
> 100 µM

Please give the measured TGI for this compound: Cc1cc(C2CC(O)C(CO)O2)cc2c(=O)[nH]c(N)nc12 (centres undefined)
> 100 µM

Please give the measured TGI for this compound: `O=c1c2c([N+](=O)[O-])cccc2nc2[nH]c3ccccc3n12`
> 75 µM

Please give the measured TGI for this compound: `CN(C)C(=S)/N=c1\ss/c(=N\C(=S)N(C)C)n1-c1ccc(Cl)c(Cl)c1`
> 100 µM

Please give the measured TGI for this compound: `N#C/C(=C\n1ccc(=O)[nH]c1=S)C(N)=O`
> 100 µM

Please give the measured TGI for this compound: `COc1ccc2ncn(-c3cc(O[C@H](C)c4ccccc4Cl)c(C(N)=O)s3)c2c1`
> 22.7 µM

Please give the measured TGI for this compound: `Cc1cc(C)[n+](CCOc2ccc(/C(=C(/Cl)c3ccccc3)c3ccccc3)cc2)c(C)c1`
3.28 µM

Please give the measured TGI for this compound: `COc1cc(C)c2c(c1C)OC(=O)c1c(C)c(Cl)c(O)c(C=O)c1O2`
61.5 µM

Please give the measured TGI for this compound: `COc1ccc(Nc2c3ccccc3nc3occ(Cl)c23)cc1`
13.3 µM

Please give the measured TGI for this compound: NC(CS/C(Cl)=C/Cl)C(=O)O (centres undefined)
78.8 µM

Please give the measured TGI for this compound: `COc1cc(Nc2c3ccccc3nc3ccccc23)ccc1NS(C)(=O)=O`
24.2 µM

Please give the measured TGI for this compound: `Nc1ccc2[nH]c3c(-c4ccccc4)nccc3c2c1`
> 100 µM

Please give the measured TGI for this compound: C1CCC2C(C1)CCCC2NC1=NCCO1 (centres undefined)
> 100 µM

Please give the measured TGI for this compound: `Cc1cn2c(/C=C3\C(=O)N(C)c4ccc(O)cc43)c(C)nc2s1`
> 100 µM

Please give the measured TGI for this compound: Cc1ccc(C2(O)CC(c3ccc([N+](=O)[O-])o3)=NN2C(=O)COc2ccc(Cl)cc2)cc1 (centres undefined)
17 µM

Please give the measured TGI for this compound: C=CCSS/C=C/CS(=O)CC=C (centres undefined)
> 100 µM

Please give the measured TGI for this compound: `COc1ccc(/C=N/N=C(\N)NO)c(O)c1`
> 10 µM

Please give the measured TGI for this compound: CC1=COC(C)(C=C(C#N)C#N)CC1 (centres undefined)
> 100 µM

Please give the measured TGI for this compound: `N#Cc1nc(-c2cccs2)oc1N`
> 100 µM

Please give the measured TGI for this compound: `Cc1cc(C)cc(Nc2cc(=O)[nH]c(=O)[nH]2)c1`
> 100 µM

Source of measurements: PubChem BioAssay (NCI)
